Source of measurements: ChEMBL document CHEMBL3137667

conditions: human, serum, 4383 h;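 also: chronic liver injury confirmed by histopathology or persistently raised serum aminotransferase activity beyond 6 months, value given as the count of indexed literature references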
Endpoint name: Hepatotoxicity (chronic liver disease)
Give bare numbers.

[[record]]
compound = "CC/C=C(\\C(=O)N[C@@H]1C(=O)N2C(C(=O)OCOC(=O)C(C)(C)C)=C(COC(N)=O)CS[C@H]12)c1csc(N)n1"
value = 0


For every item in the list below, what is its measured Hepatotoxicity (chronic liver disease)?
1. CC(C)NCC1CCc2cc(CO)c([N+](=O)[O-])cc2N1 (centres undefined) [OXAMNIQUINE]
2. CC(C)NNC(=O)c1ccncc1 [IPRONIAZID]
3. COCc1c(C(C)C)nc(C(C)C)c(/C=C/[C@@H](O)C[C@@H](O)CC(=O)O)c1-c1ccc(F)cc1 [CERIVASTATIN]

1. 0
2. 3
3. 0
